Test system: S. pneumoniae erm B + mef A genotype
assay_comment: CLSI broth dilution MIC determination
Format: cell-based
condition_parameters: Streptococcus pneumoniae
Below: a set of entries, each annotated with reported MIC.

| compound | quantity_measured | obs_value |
| --- | --- | --- |
| CC[C@H]1OC(=O)[C@H](C)[C@@H](O[C@H]2C[C@@](C)(OC)[C@@H](O)[C@H](C)O2)[C@H](C)[C@@H](O[C@@H]2O[C@H](C)C[C@H](N(C)C)[C@H]2O)[C@](C)(O)C[C@@H](C)CN(C)[C@H](C)[C@@H](O)[C@]1(C)O [Azithro, azithromycin, reference compound] | MIC | > 32 µg/mL |

So what does the record say about MIC for CC[C@H]1OC(=O)[C@@](C)(F)C(=O)[C@H](C)[C@@H](OC2OC(C)CC(N(C)C)C2O)[C@](C)(OC)C[C@@H](C)C(=O)[C@H](C)[C@H]2N(CCCCn3cc(-c4cccc(N)c4)nn3)C(=O)O[C@]12C (stereo partly drawn) [Solithro, solithromycin, reference compound] ? 0.25 µg/mL

What value of MIC has been recorded for this entry: CC[C@H]1OC(=O)[C@@H](C)C(=O)[C@H](C)[C@@H](O[C@@H]2OC(C)CC(N(C)C)C2O)[C@](C)(OC)C[C@@H](C)C(=O)[C@H](C)[C@H]2N(C/C=C/Cn3cc(-c4cccc(N)c4)nn3)C(=O)O[C@]12C (stereo partly drawn) 2 µg/mL
